normalized growth: recorded values
Assay: chemical genetic growth profiling, strain panel (AID 1159580);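 further: tested at 20 µM; growth read once vehicle control cultures reached saturation at 30 °C; 1 = growth at the plate median or of vehicle wells; lower values mean less growth of the strain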
Settings: S. cerevisiae deletion strains, growth OD, locus YOR231W, strain MKK1, active compounds read low
About 2,000 (36%) of roughly 5,500 compounds were called active. Another 18% or so got no clear call; they are omitted. The list shows a part of the results.

compound | normalized growth
O=C1c2c(O)ccc(O)c2C(=O)c2c(NCCNCCO)ccc(NCCNCCO)c21 | 0.927
O=c1cc(-c2ccc(O)cc2)oc2ccc(O)cc12 | 0.968
CCC(/C=C/[C@@H](C)[C@H]1CCC2C3CC=C4C[C@@H](O)CC[C@]4(C)C3CC[C@@]21C)C(C)C (stereo partly specified) | 0.984
CC(C)(O)[C@@H]1CC[C@](C)([C@H]2[C@@H](O)C[C@@]3(C)C4C[C@H](O[C@@H]5O[C@H](CO)[C@@H](O)[C@H](O)[C@H]5O)C5C(C)(C)[C@@H](O[C@@H]6OC[C@@H](O)[C@H](O)[C@H]6O)CC[C@@]56C[C@@]46CC[C@]23C)O1 (stereo partly specified) | 0.95
C=C1C2CC[C@@]3(C)[C@H](c4ccoc4)OC(=O)C[C@]13O[C@H]1CC(=O)C(C)(C)[C@H](C(O)C(=O)OC)[C@@]21C (stereo partly specified) | 0.983
N=c1ccc2nc3c(Cl)c4c(c(Cl)c3oc-2c1S(=O)(=O)O)Nc1ccc(N)c(S(=O)(=O)O)c1O4 | 1.04
COC(=O)C1=C(C)NC(C)=C(C(=O)OC)C1c1ccccc1[N+](=O)[O-] | 0.999
COc1cccc(-c2cc(=O)c3cc(OC)ccc3o2)c1 | 0.977
NS(=O)(=O)c1cc2c(cc1C(F)(F)F)NCNS2(=O)=O | 0.991
CCCCCCc1ccc(O)cc1O | 0.801
COc1c(O)cc2c(-c3ccccc3)cc(=O)oc2c1OC | 1.06
CC(=O)OCC(=O)[C@H]1CCC2C3CC=C4C[C@@H](O)CC[C@]4(C)C3CC[C@@]21C (stereo partly specified) | 0.942
Cc1nc(-c2ccc(C(F)(F)F)cn2)[nH]c(=O)c1Cl | 0.685
CC1=NCCc2c1[nH]c1cc(O)ccc21 | 0.985
CC(C)c1ccc2c(c1O)CC[C@H]1C3=C(CC[C@]21C)C(=O)OC3 | 0.942
CN(C(=O)N(C)c1ccc(Cl)cc1C(=O)c1ccccc1Cl)c1ccc(Cl)cc1C(=O)c1ccccc1Cl | 0.455
CCC(C)Cn1c(Sc2ncc([N+](=O)[O-])s2)n[nH]c1=O (stereo unspecified) | 0.722
CCn1nc(C)cc1-c1nnc(Sc2ncc([N+](=O)[O-])s2)n1C | 0.927
Cc1cc(C(=O)O/N=C(/N)CSc2ncccc2C(F)(F)F)no1 | 0.792
Cc1ncc(C[n+]2csc(CCO)c2C)c(=O)[nH]1 | 1.03
CCOC(=O)C1C(C=C(C)C)C1(C)C (stereo unspecified) | 1.03
COc1ccc(-c2cc(=O)c3c(OC)c(OC)c(OC)c(OC)c3o2)cc1 | 1.02
N/C(CSc1ncccc1C(F)(F)F)=N/OC(=O)Nc1cccc(Cl)c1 | 0.749
CC(C)(C)C(=O)C(Oc1ccc(Cl)cc1)n1cncn1 (stereo unspecified) | 0.273
N/C(CSc1ccc(Cl)cc1)=N/OC(=O)c1ccc(C(F)(F)F)cc1 | 0.791
CCC(CCC(C)[C@H]1CCC2C3CC=C4C[C@@H](O)CC[C@]4(C)C3CC[C@@]21C)C(C)C (stereo partly specified) | 0.991
CN(C)CCC=C1c2ccccc2CCc2ccccc21 | 1.05
[N-]=[N+]=CC(=O)OCC(N)C(=O)O (stereo unspecified) | 0.976
COc1c(O)cccc1O | 1.03
CN1CCN2c3ccccc3Cc3ccccc3C2C1 (stereo unspecified) | 0.973
Cn1nnnc1SCC1=C(C(=O)O)N2C(=O)C(NC(=O)C(O)c3ccccc3)C2SC1 (stereo unspecified) | 0.996
N#CCCCCOc1ccc2c(=O)cc(-c3ccccc3)oc2c1 | 0.964
Cc1ccc(C(=O)O/N=C(/N)CSc2ncccc2C(F)(F)F)cc1 | 0.821
CC(=O)O[C@H]1C[C@H](O[C@H]2[C@@H](O)C[C@H](O[C@H]3[C@@H](O)C[C@H](O[C@H]4CC[C@@]5(C)C(CCC6C5C[C@@H](O)[C@]5(C)[C@@H](C7=CC(=O)OC7)CC[C@]65O)C4)O[C@@H]3C)O[C@@H]2C)O[C@H](C)[C@H]1O[C@@H]1O[C@H](CO)[C@@H](O)[C@H](O)[C@H]1O (stereo partly specified) | 0.983
C[C@@H]1CC[C@@]2(OC1)OC1C(O)C3C4CC[C@H]5C[C@H](O[C@@H]6O[C@H](CO)[C@H](O[C@@H]7O[C@H](CO)[C@@H](O)[C@H](O[C@@H]8OC[C@@H](O)[C@H](O)[C@H]8O)[C@H]7O[C@@H]7O[C@H](CO)[C@H](O)[C@H](O[C@@H]8O[C@H](CO)[C@@H](O)[C@H](O)[C@H]8O)[C@H]7O)[C@H](O)[C@H]6O)[C@H](O)C[C@]5(C)C4CC[C@]3(C)C1[C@@H]2C (stereo partly specified) | 0.0965
N[C@H](CO)Cc1ccccc1 | 1.07
